# Assay Notes: Intestinal absorption, Caco-2 intestinal barrier model in vitro
# Assay type: in vitro ADME, human
# Experimental Setup: human, Caco-2; read-out: Papp (apparent permeability coefficient)
Measured Metric: Papp at 4 h, 1 mM

IN: Return Papp at 4 h, 1 mM (reported value) for this compound: CC(C=O)Cc1ccc(C(C)(C)C)cc1 (stereo not shown)
OUT: 21 ×10⁻⁶ cm/s
